experiment_summary: Metabolic stability in rat liver S9 fractions assessed as parent compound remaining in presence of NADPH incubated fro 30 mins by HPLC and MS-detection based method
Format: ADME, subcellular, S9 fraction
settings: read-out: Stability
Response field label takes met when remaining at 0.5 h is strictly below 80% and not met in all other cases.

In the record for `CN(CCCCCn1ccc2ccc(F)cc21)C(=O)Oc1ccccc1` , is remaining at 0.5 h less than 80%?
met

Does the reported remaining at 0.5 h of the following compound sit strictly below 80%? `O=C(Oc1ccccc1)N1CCC(CCn2ccc3ccccc32)CC1`
not met

Find out if reported remaining at 0.5 h for `O=C(Oc1ccccc1)N1CCC(Cn2ccc3ccccc32)CC1` is less than 80%
met
